B1: Osa-1-4 twister ribozyme (parent)
chain: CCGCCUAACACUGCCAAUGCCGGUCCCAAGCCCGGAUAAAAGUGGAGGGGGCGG

- Variants of: B1
- Procedure details: self-cleavage, relative activity (ratio to wild type); higher = more cleavage; co-transcriptional
Classification by self-cleavage follows these ranges: low (below 0.07), mid (0.07 to below 0.2), high (0.2 or more)

{"Mutation descriptor": "C11A C26U", "Cat": "high"}
{"Mutation descriptor": "A17C G13C", "Cat": "low"}
{"Mutation descriptor": "C20A C33A", "Cat": "mid"}
{"Mutation descriptor": "C31U U43G", "Cat": "mid"}
{"Mutation descriptor": "C9U G53C", "Cat": "low"}
{"Mutation descriptor": "G30A G47C", "Cat": "low"}
{"Mutation descriptor": "C25G C9A", "Cat": "low"}
{"Mutation descriptor": "G35A G42C", "Cat": "mid"}
{"Mutation descriptor": "A46U G49A", "Cat": "low"}
{"Mutation descriptor": "G42A G48A", "Cat": "low"}
{"Mutation descriptor": "A8C G23C", "Cat": "low"}
{"Mutation descriptor": "C31G G45C", "Cat": "low"}
{"Mutation descriptor": "A17G G42U", "Cat": "high"}
{"Mutation descriptor": "U37C U43A", "Cat": "high"}
{"Mutation descriptor": "G53C U12C", "Cat": "low"}
{"Mutation descriptor": "A8C C14A", "Cat": "low"}
{"Mutation descriptor": "A29U A8U", "Cat": "low"}
{"Mutation descriptor": "C20G G22U", "Cat": "mid"}
{"Mutation descriptor": "A39C C32A", "Cat": "mid"}
{"Mutation descriptor": "C21U G53C", "Cat": "mid"}
{"Mutation descriptor": "A8U G22U", "Cat": "mid"}
{"Mutation descriptor": "A39G A41U", "Cat": "high"}
{"Mutation descriptor": "G34C G44U", "Cat": "mid"}
{"Mutation descriptor": "G45A G53C", "Cat": "low"}
{"Mutation descriptor": "A41U C14A", "Cat": "mid"}
{"Mutation descriptor": "A41U C20G", "Cat": "mid"}
{"Mutation descriptor": "A16U A28G", "Cat": "high"}
{"Mutation descriptor": "C26G C52U", "Cat": "mid"}
{"Mutation descriptor": "C25G C31U", "Cat": "low"}
{"Mutation descriptor": "A40G G54C", "Cat": "high"}
{"Mutation descriptor": "A10U A36C", "Cat": "low"}
{"Mutation descriptor": "A38C C11A", "Cat": "high"}
{"Mutation descriptor": "C11U G44A", "Cat": "high"}
{"Mutation descriptor": "A38U G54C", "Cat": "high"}
{"Mutation descriptor": "C15G G22A", "Cat": "mid"}
{"Mutation descriptor": "G53A G54C", "Cat": "high"}
{"Mutation descriptor": "C11A G50C", "Cat": "high"}
{"Mutation descriptor": "G13U U18A", "Cat": "low"}
{"Mutation descriptor": "C52G G48C", "Cat": "mid"}
{"Mutation descriptor": "A16U G34A", "Cat": "high"}
{"Mutation descriptor": "G51A U43A", "Cat": "high"}
{"Mutation descriptor": "A39G C9U", "Cat": "high"}

Cited source for all entries: the RNAGym collection of RNA variant scans (doi:10.1002/anie.201605470)
